biological target: T1, human CD71 extracellular domain (human, UniProt P02786 89-760, biotinylated); assay: solution ELISA screen, signal ratio to HSA control
T1 construct: extracellular domain; also called hCD71; huCD71 ECD
T1 sequence (P02786 other isoform, or with tags, fused parts or gaps): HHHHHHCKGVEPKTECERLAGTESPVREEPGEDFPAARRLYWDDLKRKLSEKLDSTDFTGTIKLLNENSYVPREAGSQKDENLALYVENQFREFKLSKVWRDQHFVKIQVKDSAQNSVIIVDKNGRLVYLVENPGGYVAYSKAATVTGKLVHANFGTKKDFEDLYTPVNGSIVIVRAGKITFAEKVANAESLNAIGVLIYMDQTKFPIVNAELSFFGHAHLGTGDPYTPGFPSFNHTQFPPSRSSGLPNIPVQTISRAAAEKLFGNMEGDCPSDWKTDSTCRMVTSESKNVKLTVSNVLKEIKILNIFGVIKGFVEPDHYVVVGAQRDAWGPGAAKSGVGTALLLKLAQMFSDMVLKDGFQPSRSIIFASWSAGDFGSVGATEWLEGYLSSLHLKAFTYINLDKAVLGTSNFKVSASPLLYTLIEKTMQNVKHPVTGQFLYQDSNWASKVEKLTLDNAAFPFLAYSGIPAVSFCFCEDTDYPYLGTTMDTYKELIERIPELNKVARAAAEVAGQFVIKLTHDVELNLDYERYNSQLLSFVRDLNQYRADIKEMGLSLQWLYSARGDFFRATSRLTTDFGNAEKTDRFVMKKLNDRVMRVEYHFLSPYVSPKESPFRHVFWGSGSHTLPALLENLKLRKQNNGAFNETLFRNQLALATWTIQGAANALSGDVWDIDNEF
measured attribute: hCD71:HSA (ratio)

Return reported hCD71:HSA; argument: SEQ ID NO 227 (designed binder, not shown: small tags and cut ends) MLPAPKNLVVSRVTEDSARLSWTAPDAAFDSFYIAYAEPRPDGEAIGLRVPGSERSYDLTGLKPGTEYSVLIHGVKGGLLSSPLSAIFTT
22.5

Return reported hCD71:HSA; argument: SEQ ID NO 235 (designed binder, not shown: small tags and cut ends) MLPAPKNLVVSRVTEDSARLSWTAPDAAFDSFFIGYLEPQPPGEAIQLTVPGSERSYDLTGLKPGTEYNVTIQGVKGGFPSLPLSADFTT
39.5

a: SEQ ID NO 214 (designed binder, not shown: small tags and cut ends) MLPAPKNLVVSRVTEDSARLSWTAPDAAFDSFYIAYAEPRPDGEAIGLQVPGSERSYDLTGLKPGTEYSVLIHGVKGGLLSSPLCAEFTT
b: SEQ ID NO 252 (designed binder, not shown: small tags and cut ends) MLPAPKNLVVSRVTEDSARLSWTAPDAAFDSFYIAYAEPRPDGEAIVLHVPGSERSYDLTGLKPGTEYSVLIHGVKGGLLSSPLDAFFTT
// returns a or b , whichever has the lower hCD71:HSA Bench note: the answer is the label of the chosen record.
a
(a: 13 ratio, b: 59.6 ratio)
